Target: CK2A2 (Homo sapiens)
Construct: purchased Eurofins
Sequence (P19784 whole entry): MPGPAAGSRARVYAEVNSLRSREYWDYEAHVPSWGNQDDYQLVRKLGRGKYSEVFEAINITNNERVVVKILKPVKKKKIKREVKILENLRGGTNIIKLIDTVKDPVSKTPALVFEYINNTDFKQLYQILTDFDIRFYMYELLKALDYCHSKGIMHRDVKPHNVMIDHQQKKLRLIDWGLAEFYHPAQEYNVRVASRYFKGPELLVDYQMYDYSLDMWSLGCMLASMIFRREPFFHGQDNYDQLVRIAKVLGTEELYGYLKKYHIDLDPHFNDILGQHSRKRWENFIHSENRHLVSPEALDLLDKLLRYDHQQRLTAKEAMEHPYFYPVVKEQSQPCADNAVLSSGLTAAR
Test: Radiometric kinase assay (Eurofins), CK2A2
Type: biochemical
Settings: Table 8; quinazolinones; read-out: CK2A2 RAD IC50
pIC50: −log10 of the molar value.
REPORTED_PROPERTY: pIC50

| COMPOUND | MEASURED_ON | pIC50 |
| --- | --- | --- |
| O=c1[nH]c(-c2cc(F)c(O)c(F)c2)nc2c(Br)cc(Br)cc12 [JKT.774A] | CK2A2 (Homo sapiens) | 5.98 |

a: O=c1[nH]c(-c2cc(F)c(O)c(F)c2)nc2c(Br)cccc12 [JKT.830A]
b: O=c1[nH]c(-c2ccc(O)c(C(F)(F)F)c2)nc2c(Br)cc(Br)cc12 [JKT.775A]
c: O=c1[nH]c(-c2ccc(O)c(Br)c2)nc2c(Br)nc(Br)cc12 [JKT.880B]
Your job: order these 3 records by pIC50, ascending. List the labels in the requested order.
b, a, c
(b: 5.61, a: 5.92, c: 6.62)

# credit: patent US20260199350A1
